target: hGLP-1R (Homo sapiens, UniProt P43220); assay: Functional cAMP activation in the presence of 0.1% casein (no HSA); format: cell-based; settings: in the presence of 0.1% casein (no HSA); geometric mean; read-out: Relative cAMP EC50, hGLP-1R;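 also: intracellular cAMP rise after 30 min at 37 °C read by HTRF, normalized between buffer only (0%) and maximal control ligand (100%), four-parameter variable-slope fit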
Sequence (P43220 24-463): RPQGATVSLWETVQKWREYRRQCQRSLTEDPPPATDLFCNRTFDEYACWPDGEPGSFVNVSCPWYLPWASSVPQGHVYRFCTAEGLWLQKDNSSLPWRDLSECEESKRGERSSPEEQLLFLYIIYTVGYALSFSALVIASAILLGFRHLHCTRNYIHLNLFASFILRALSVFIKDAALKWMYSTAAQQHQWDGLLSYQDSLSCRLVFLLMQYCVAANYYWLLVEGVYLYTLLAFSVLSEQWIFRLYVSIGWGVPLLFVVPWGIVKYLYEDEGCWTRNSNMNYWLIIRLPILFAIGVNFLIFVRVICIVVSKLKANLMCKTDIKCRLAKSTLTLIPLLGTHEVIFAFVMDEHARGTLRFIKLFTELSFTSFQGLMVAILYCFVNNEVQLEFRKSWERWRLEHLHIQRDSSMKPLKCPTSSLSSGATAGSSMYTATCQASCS
Starred links: 1 amine or outer side, 2 acyl side, 3 side chain; linkers in the order of their positions; H or OH if unused. Non-standard residues stand in square brackets, D forms with d. Groups on a side chain read outwards from the residue. *: point of attachment. C18 diacid = O=C(O)CCCCCCCCCCCCCCCCC(=O)*; γGlu = O=C(O)[C@H](CCC(=O)[*:2])N[*:1]; αMe4Pal = C[C@](N)(Cc1ccncc1)C(=O)O; αMeY = C[C@](N)(Cc1ccc(O)cc1)C(=O)O; 4Pal = N[C@@H](Cc1ccncc1)C(=O)O; αMeL = CC(C)C[C@](C)(N)C(=O)O; Orn = NCCC[C@H](N)C(=O)O; AEEA = NCCOCCOCC(=O)O; Aib = CC(C)(N)C(=O)O
Experimental endpoint: pEC50
Numbers only, as −log10 of the molar value.

See these solved cases before continuing.
{"Substance": "H-Y[Aib]QGTFTSD[4Pal]SQ[αMeL]LD[Orn]K([γGlu-γGlu-C18 diacid])AQ[αMe4Pal]AFIE[αMeY]LIEGGPSSGAPPPSGSEE-NH2 [Example 1043]", "pEC50": 8.82}
{"Substance": "H-Y[Aib]QGTFTSD[4Pal]SQ[αMeL]LD[Orn]K([AEEA-γGlu-C18 diacid])AQ[αMe4Pal]QFIE[αMeY]LIA[Aib]GPSSGEPPPSGSEE-NH2 [Example 1100]", "pEC50": 9.29}
{"Substance": "H-Y[Aib]QGTFTSD[4Pal]SQ[αMeL]LDKK([γGlu-γGlu-C18 diacid])AQ[αMe4Pal]AFIEYLIE[Aib]GPSSGAPPPSGSE-NH2 [Example 890]", "pEC50": 8.50}

# per-item lookup of pEC50; items listed below
1. H-Y[Aib]QGTFTSDFS[Orn][αMeL]LDKK([γGlu-AEEA-γGlu-C18 diacid])AQ[Aib]AFIEYLLE[Aib]GPSSGAPPPSGT-NH2 [Example 276]
2. H-Y[Aib]QGTFTSD[4Pal]SQ[αMeL]LDKK([γGlu-γGlu-C18 diacid])AQ[αMe4Pal]AFIE[αMe4Pal]LIE[Aib]GPSSGEPPPSGSEE-NH2 [Example 1125]
3. H-Y[Aib]QGTFTSD[4Pal]S[Orn][αMeL]LDKK([γGlu-γGlu-C18 diacid])AQ[αMe4Pal]AFIEYLIAGGPSSGEPPPSGTEE-NH2 [Example 981]

// result
1. 8.58
2. 8.08
3. 8.35

These entries and their values trace back to patent US20240270821A1.
